B1: CDKN1A (parent)
chain: RRQTSMTDFYHSKRRLIFSKRKP

Variants of: B1
measurement.notes: protein stability index of a GFP-peptide fusion (GPS, HEK-293T) (PSI 1-6); higher = more stable;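 note: lentivirally expressed fusions sorted by FACS into six bins by GFP to DsRed ratio, PSI derived from sequencing read proportions per bin multiplied by bin number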
measurement.parameters: c terminus: native
readout: protein stability index
Numbers only.

{"columns": ["mutation.string", "quantitative.readout"],
 "data": [
  ["H11E", 2.37],
  ["I17K", 1.86],
  ["Q3L", 4.67],
  ["R15C", 3.8],
  ["R14M", 3.31]
]}

Could you tell me protein stability index for each of these variants? They are listed below.
1. S5N
2. F9C
3. M6A
4. S19L

[1.73, 2.71, 2.57, 2.33]

# batch: return protein stability index for each of the 8 variants below
1. H11Q
2. S5Q
3. R15L
4. T4F
5. I17P
6. S19W
7. L16H
8. K20Y

[2.55, 2.55, 2.47, 2.21, 3.06, 1.71, 2.87, 1.9]
